TESTED SYSTEM: PYL5 (Arabidopsis thaliana)
Construct: 6X-His; made in house; host or cells: E. coli BL21[DE3]pLysS
Sequence (Q9FLB1 whole entry): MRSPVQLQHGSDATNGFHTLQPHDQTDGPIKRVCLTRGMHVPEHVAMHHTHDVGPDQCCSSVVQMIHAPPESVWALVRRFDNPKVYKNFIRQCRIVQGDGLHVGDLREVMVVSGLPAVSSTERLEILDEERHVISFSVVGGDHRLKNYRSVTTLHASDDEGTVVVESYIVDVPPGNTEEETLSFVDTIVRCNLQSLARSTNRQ
Sequence (Q9CAJ0 23-511 partner): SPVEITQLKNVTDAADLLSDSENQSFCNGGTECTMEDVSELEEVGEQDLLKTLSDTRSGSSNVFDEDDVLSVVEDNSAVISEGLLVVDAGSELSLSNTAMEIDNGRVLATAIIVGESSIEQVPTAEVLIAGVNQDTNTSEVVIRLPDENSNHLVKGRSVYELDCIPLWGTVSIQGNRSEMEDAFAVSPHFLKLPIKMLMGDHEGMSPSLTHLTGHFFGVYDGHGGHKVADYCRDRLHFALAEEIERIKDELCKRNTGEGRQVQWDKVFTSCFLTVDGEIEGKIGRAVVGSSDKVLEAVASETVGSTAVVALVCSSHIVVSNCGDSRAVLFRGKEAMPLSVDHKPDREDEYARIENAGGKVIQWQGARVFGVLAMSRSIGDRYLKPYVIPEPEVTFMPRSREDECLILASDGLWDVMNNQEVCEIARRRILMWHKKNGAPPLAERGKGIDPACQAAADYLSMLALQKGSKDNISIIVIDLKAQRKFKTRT
EXPERIMENT: receptor-mediated PP2C (HAB1) inhibition in vitro assay
Assay type: biochemical
CONDITION DESCRIPTION: 50 uM of the test compound
This section presents molecules with their documented remaining activity at 50 µM values.
Dear colleague, please return just the value in %, with no unit written.

• N#Cc1ccc(CS(=O)(=O)NC(=O)C(c2ccc(F)cc2)c2ccc(F)cc2)cc1 [Compound 72] = 102
• N#Cc1ccc(CS(=O)(=O)NC(=O)C2(c3ccsc3)CCCCC2)cc1Br [Compound 106] = 11.9

# evaluate next
Exercise: Please give the measured remaining activity at 50 µM for this molecule: O=C(NS(=O)(=O)Cc1ccc([N+](=O)[O-])cc1)C1(c2ccccc2)CCCCC1 [Compound 63]
Solution: 107

###

TESTED SYSTEM: PYL3 (Arabidopsis thaliana)
Construct: 6X-His; made in house; host or cells: E. coli BL21[DE3]pLysS
Sequence (Q9SSM7 whole entry, one chain of several): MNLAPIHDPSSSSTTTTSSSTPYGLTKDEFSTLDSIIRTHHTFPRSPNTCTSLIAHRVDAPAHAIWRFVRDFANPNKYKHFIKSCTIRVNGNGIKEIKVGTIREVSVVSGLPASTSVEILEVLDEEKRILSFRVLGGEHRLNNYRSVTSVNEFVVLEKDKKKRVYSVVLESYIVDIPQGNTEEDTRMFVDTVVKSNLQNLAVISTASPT
EXPERIMENT: receptor-mediated PP2C (HAB1) inhibition in vitro assay
Type: biochemical
CONDITION DESCRIPTION: Table XII-B; calculated from dose curves; read-out: PP2C Activity (IC50 in uM) PYL3
METRIC: IC50

Take a look at these entries with their results.
* N#Cc1ccc(CS(=O)(=O)NC(=O)C(C2CCCCC2)C2CCCCC2)cc1 | > 50 µM
* CC(C)COC(=O)NS(=O)(=O)Cc1ccc(C#N)cc1 | > 50 µM
* O=C(NS(=O)(=O)Cc1ccc(F)cc1)C1(c2ccccc2)CCCCC1 | > 50 µM
* O=C(NS(=O)(=O)Cc1ccc([N+](=O)[O-])cc1)C1(c2ccccc2)CCCCC1 | > 50 µM
* N#Cc1ccc(CS(=O)(=O)NC(=O)C2(c3ccccc3)CCCCC2)cc1 | > 50 µM

Exercise: Please give the measured IC50 for this compound: N#Cc1ccc(CS(=O)(=O)NC(=O)C2(c3cccs3)CCCCC2)cc1
Solution: > 50 µM

Exercise: Here is the next compound: N#Cc1ccc(CS(=O)(=O)NC(=O)C(c2ccc(F)cc2)c2ccc(F)cc2)cc1
Solution: > 50 µM

Exercise: Here is the next compound: N#Cc1ccc(CS(=O)(=O)NC(=O)C(c2ccccc2)c2ccccc2)cc1
Solution: > 50 µM

Exercise: Here is the next compound: N#Cc1ccc(CS(=O)(=O)NC(=O)C2(c3ccsc3)CCCCC2)cc1
Solution: > 50 µM

###

TESTED SYSTEM: PYL8 (Arabidopsis thaliana)
Construct: 6X-His; made in house; host or cells: E. coli BL21[DE3]pLysS
Sequence (Q9FGM1 whole entry): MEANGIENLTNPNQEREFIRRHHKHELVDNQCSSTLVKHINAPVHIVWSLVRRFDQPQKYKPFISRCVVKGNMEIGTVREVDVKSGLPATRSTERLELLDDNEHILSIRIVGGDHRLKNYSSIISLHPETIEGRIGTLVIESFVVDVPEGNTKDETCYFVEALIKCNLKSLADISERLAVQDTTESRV
Sequence (Q9CAJ0 23-511 partner): as the sequence (Q9CAJ0 23-511 partner) above
EXPERIMENT: receptor-mediated PP2C (HAB1) inhibition in vitro assay
Format: biochemical
CONDITION DESCRIPTION: compound at 25 μM; control without agonist = 100%
METRIC: PP2C Activity (25 μm) PYL8
Answer format: number, then unit.

Take a look at these entries with their results.
- CC(C)(C(=O)NS(=O)(=O)Cc1ccc(C#N)cc1)c1cccc(Cl)c1 [Compound 15]: 57%
- N#Cc1ccc(CS(=O)(=O)NC(=O)C2(c3cccc(F)c3)CCOCC2)cc1 [Compound 57]: 56%
- COc1ccccc1C1(C(=O)NS(=O)(=O)Cc2ccc(C#N)cc2)CC1 [Compound 41]: 89%

Exercise: Please give the measured PP2C Activity (25 μm) PYL8 for this molecule: CC(C)(C(=O)NS(=O)(=O)Cc1ccc(C#N)cc1)c1ccc2ccccc2c1 [Compound 54]
Solution: 106%
